The entries below come with measured binding signal values attached.
Biological target: MBP-FoxP3dN (Mus musculus, UniProt Q99JB6 188-423)
Sequence: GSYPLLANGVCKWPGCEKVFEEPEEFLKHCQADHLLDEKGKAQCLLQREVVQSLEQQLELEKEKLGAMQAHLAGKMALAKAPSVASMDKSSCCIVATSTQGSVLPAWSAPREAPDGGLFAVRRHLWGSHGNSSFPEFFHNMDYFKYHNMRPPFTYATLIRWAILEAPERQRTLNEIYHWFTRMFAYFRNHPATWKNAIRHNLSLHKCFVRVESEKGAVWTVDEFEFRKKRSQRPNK
Assay: PD-seq (MBP pull-down with sequencing); 20 mM Tris-HCl pH 7.5, 100 mM NaCl, 1.5 mM MgCl2, 0.4 uM protein, 0.1 uM dsDNA library, 30 min, room temperature, amylose pull-down; high values mean tight binding
Conditions: protein: recombinant; tags: His6-MBP; chain copies: 2; dsDNA, one strand shown
The full ranking holds about 16,000 sequences; the median of “rpm ratio (pull-down/input)” is about 0.5, and the highest 2% start at about 5.5. The list comes from a sample in which the highest values are over-represented; it also holds close analogues and randomly drawn sequences.

// known answers, use as guide
Sequence Record: GATGATTGTTCTCCCAGCTGATGAATTACCTGCTTCGAGTAAACAAATTTTCCTAATCTTTCTGTTCAAGCGCCATCTAC
Experimental System: MBP-FoxP3dN (Mus musculus, UniProt Q99JB6 188-423)
binding signal: 0.326 RPM ratio (pull-down/input)

Sequence Record: GATGATTGTTCTCCCAGCTGATGAATTGATCGACTCGAGTAAACAAATTTTCCTAATCTTTCTGTTCAAGCGCCATCTAC
Experimental System: MBP-FoxP3dN (Mus musculus, UniProt Q99JB6 188-423)
binding signal: 0.33 RPM ratio (pull-down/input)

Sequence Record: GATGATTGTTCTCCCAGCTGATGAATTGAGCATCTCGAGTAAACAAATTTTCCTAATCTTTCTGTTCAAGCGCCATCTAC
Experimental System: MBP-FoxP3dN (Mus musculus, UniProt Q99JB6 188-423)
binding signal: 6.26 RPM ratio (pull-down/input)

Sequence Record: GATGATTGTTCTCCCAGCTGATGAATTGAGCAGCTCGAGTAAACAAATTTTCCTAATCTTTCTGTTCAAGCGCCATCTAC
Experimental System: MBP-FoxP3dN (Mus musculus, UniProt Q99JB6 188-423)
binding signal: 1.12 RPM ratio (pull-down/input)

Sequence Record: GATGATTGTTCTCCCAGCTGATGAATTGGGAGATTCGAGTAAACAAATTTTCCTAATCTTTCTGTTCAAGCGCCATCTAC
Experimental System: MBP-FoxP3dN (Mus musculus, UniProt Q99JB6 188-423)
binding signal: 0.372 RPM ratio (pull-down/input)

Sequence Record: GATGATTGTTCTCCCAGCTGATGAATTCGGCACATCGAGTAAACAAATTTTCCTAATCTTTCTGTTCAAGCGCCATCTAC
Experimental System: MBP-FoxP3dN (Mus musculus, UniProt Q99JB6 188-423)
binding signal: 0.778 RPM ratio (pull-down/input)

Sequence Record: GATGATTGTTCTCCCAGCTGATGAATTGACACTCTCGAGTAAACAAATTTTCCTAATCTTTCTGTTCAAGCGCCATCTAC
Experimental System: MBP-FoxP3dN (Mus musculus, UniProt Q99JB6 188-423)
binding signal: 0.6 RPM ratio (pull-down/input)

Sequence Record: GATGATTGTTCTCCCAGCTGATGAATTTAGCTACTCGAGTAAACAAATTTTCCTAATCTTTCTGTTCAAGCGCCATCTAC
Experimental System: MBP-FoxP3dN (Mus musculus, UniProt Q99JB6 188-423)
binding signal: 1.83 RPM ratio (pull-down/input)

Item "GATGATTGTTCTCCCAGCTGATGAATTTCCTGCATCGAGTAAACAAATTTTCCTAATCTTTCTGTTCAAGCGCCATCTAC" with MBP-FoxP3dN (Mus musculus, UniProt Q99JB6 188-423) - binding signal?
0.719 RPM ratio (pull-down/input)

Same question for "GATGATTGTTCTCCCAGCTGATGAATTGAGCATTTCGAGTAAACAAATTTTCCTAATCTTTCTGTTCAAGCGCCATCTAC" please.
6.08 RPM ratio (pull-down/input)

Just for reference, paper PMC12820563 is where these values come from.
